# Tested on: LC-2-ad
# TEST_PROTOCOL: relative viability (nuclei count vs DMSO), 5 days (fraction); higher = more cells survive
# CONDITION_INFO: first compound 0.8 µM
We begin with a simple list: items and their reported relative viability.
PARAMETER: relative viability

C=C1C(=O)O[C@@H](CCCCCCCC)[C@@H]1C(=O)O [C-75] + NC(=O)Nc1cc(-c2cccc(F)c2)sc1C(=O)N[C@H]1CCCNC1 [AZD7762] (partner 0.2 µM) ... 0.819
Oc1nc(-c2ccc(C(F)(F)F)cc2)nc2c1CSCC2 [XAV939] + Nc1ncn([C@H]2C[C@H](O)[C@@H](CO)O2)c(=O)n1 [Decitabine] (partner 2 µM) ... 0.872
C=C1C(=O)O[C@@H](CCCCCCCC)[C@@H]1C(=O)O [C-75] + N=C(N)NC(=N)NCCc1ccccc1 [Phenformin] (partner 250 µM) ... 0.544
Oc1nc(-c2ccc(C(F)(F)F)cc2)nc2c1CSCC2 [XAV939] + N=C(N)NC(=N)NCCc1ccccc1 [Phenformin] (partner 250 µM) ... 0.569
Oc1nc(-c2ccc(C(F)(F)F)cc2)nc2c1CSCC2 [XAV939] + COc1cccc2cc(-c3nc([C@H]4CC[C@H](C(=O)O)CC4)n4ncnc(N)c34)[nH]c12 [OSI-027] (partner 0.5 µM) ... 0.889
Oc1nc(-c2ccc(C(F)(F)F)cc2)nc2c1CSCC2 [XAV939] + CS(=O)(=O)N1CCN(Cc2cc3nc(-c4cccc5[nH]ncc45)nc(N4CCOCC4)c3s2)CC1 [Pictilisib] (partner 1 µM) ... 0.407
C=C1C(=O)O[C@@H](CCCCCCCC)[C@@H]1C(=O)O [C-75] + Nc1nc2[nH]cc(CCc3ccc(C(=O)N[C@@H](CCC(=O)O)C(=O)O)cc3)c2c(=O)[nH]1 [Pemetrexed] (partner 0.2 µM) ... 0.285

* * *

# Test system: EMC-BAC-2
# TEST_PROTOCOL: relative viability (nuclei count vs DMSO), 5 days (fraction); higher = more cells survive
# CONDITION_INFO: first compound 0.8 µM
We begin with a simple list: items and their reported relative viability.
PARAMETER: relative viability

C=C1C(=O)O[C@@H](CCCCCCCC)[C@@H]1C(=O)O [C-75] + C[C@]1(O)C[C@@H](c2nc(-c3ccc4ccc(-c5ccccc5)nc4c3)c3c(N)nccn32)C1 [Linsitinib] (partner 1 µM) ... 0.831
Oc1nc(-c2ccc(C(F)(F)F)cc2)nc2c1CSCC2 [XAV939] + CCNC(=O)c1noc(-c2cc(C(C)C)c(O)cc2O)c1-c1ccc(CN2CCOCC2)cc1 [Luminespib] (partner 0.01 µM) ... 0.971
C=C1C(=O)O[C@@H](CCCCCCCC)[C@@H]1C(=O)O [C-75] + O=C(CCCCCCC(=O)Nc1ccccc1)NO [Vorinostat] (partner 1 µM) ... 0.276
Oc1nc(-c2ccc(C(F)(F)F)cc2)nc2c1CSCC2 [XAV939] + C[C@@H](Oc1cc(-c2cnn(C3CCNCC3)c2)cnc1N)c1c(Cl)ccc(F)c1Cl [Crizotinib] (partner 1 µM) ... 0.623
Oc1nc(-c2ccc(C(F)(F)F)cc2)nc2c1CSCC2 [XAV939] + CS(=O)(=O)N1CCN(Cc2cc3nc(-c4cccc5[nH]ncc45)nc(N4CCOCC4)c3s2)CC1 [Pictilisib] (partner 1 µM) ... 0.416
